# System: Trichomonas vaginalis G3 trophozoites
# details: HTS, parasite screen at 1 µg/mL, replicate 1
// classify: if (T.vaginalis_%inb_Rep1 < 10%) yes else no

# TODO verify T.vaginalis_%inb_Rep1 < 10% strictly for this compound: CC1(C)CCC[C@]2(C)[C@@H](CO)C(CO)=CC[C@@H]12
no

# TODO verify T.vaginalis_%inb_Rep1 < 10% strictly for this compound: CN[C@@H]1C[C@H]2O[C@@](C)([C@@H]1OC)n1c3ccccc3c3c4c(c5c6ccccc6n2c5c31)C(=O)N[C@H]4O [UCN-02]
yes

# TODO verify T.vaginalis_%inb_Rep1 < 10% strictly for this compound: CC(C)=CC(=O)CC(C)c1ccc(C)cc1 (stereo not drawn)
yes

# TODO verify T.vaginalis_%inb_Rep1 < 10% strictly for this compound: CO[C@H]1C[C@H](O[C@H]2[C@H](C)O[C@@H](O[C@@H]3/C(C)=C/C[C@@H]4C[C@@H](C[C@]5(C=C[C@H](C)[C@@H](C6CCCCC6)O5)O4)OC(=O)C4=C[C@H](C)[C@@H](O)[C@H]5OC/C(=C\C=C[C@@H]3C)[C@@]45O)C[C@@H]2OC)O[C@@H](C)[C@@H]1O
no

# TODO verify T.vaginalis_%inb_Rep1 < 10% strictly for this compound: C=C1CC[C@H]2C(C)(C)CCC[C@]2(C)[C@H]1C[C@@]12C[C@H]3C(=O)N4CCC=C4C(=O)N3[C@@H]1Nc1ccccc12
no
